From: patent US6673938B1

Assign pre-emergence action, Cyperus to each entry below.
Test system: Monocotyledonous and dicotyledonous test plants
Experiment: Herbicidal action before emergence of the plants (pre-emergence action)
Type: in vivo
Settings: Cyperus; 2000 g/ha; evaluated after 3 weeks; nine-step scale
Give bare numbers.

Record excerpt, results attached:
[[record]]
compound = "COCc1nc(C(F)(F)F)ccc1C(=O)C1=C(O)C(C)CCC1=O (centres unmarked)"
metric_name = "pre-emergence action, Cyperus"
recorded_measurement = 1

[[record]]
compound = "Cc1nc(C(F)(F)F)ccc1C(=O)C1=C(O)C(C)(C)C(=O)C(C)(C)C1=O"
metric_name = "pre-emergence action, Cyperus"
recorded_measurement = 1

[[record]]
compound = "Cc1nc(C(F)(F)F)ccc1C(=O)C1=C(O)CCC2(CC2)C1=O"
metric_name = "pre-emergence action, Cyperus"
recorded_measurement = 2


Please state pre-emergence action, Cyperus for every compound in the list that follows.
1. Cc1nc(C(F)(F)F)ccc1C(=O)C1=C(O)C(C)(S(C)(=O)=O)CC(C)C1=O (centres unmarked)
2. CCc1nc(C(F)(F)F)ccc1C(=O)C1=C(O)CCCC1=O

1: 2; 2: 2

###

What Post-emergence action: Echino. (score, nine-step scale) was measured for each of the following?
Test system: Monocotyledonous and dicotyledonous test plants
Experiment: Post-emergence herbicidal action
Type: in vivo
Conditions: Echino.; 250 g/ha; sprayed at 4- to 6-leaf stage; evaluated after approximately 18 days
One number for each entry.

Some molecules with recorded Post-emergence action: Echino. (score, nine-step scale):
[[record]]
molecule = "COCc1nc(C(F)(F)F)ccc1C(=O)C1=C(O)CCCC1=O"
recorded_measurement = 3

[[record]]
molecule = "CCSC1(CC)CC(C)C(=O)C(C(=O)c2ccc(C(F)(F)F)nc2C)=C1O (centres unmarked)"
recorded_measurement = 2


Please go through the list and note Post-emergence action: Echino. (score, nine-step scale) for each molecule.
1. COC(=O)C1C(O)=C(C(=O)c2ccc(C(F)(F)F)nc2C)C(=O)CC1(C)C (centres unmarked)
2. COCc1nc(C(F)(F)F)ccc1C(=O)C1=C(O)C(C)C(C)CC1=O (centres unmarked)
3. CCOC(=O)C1(C)C(O)=C(C(=O)c2ccc(C(F)(F)F)nc2COC)C(=O)C2CC21 (centres unmarked)
4. CCOC(=O)C1C(O)=C(C(=O)c2ccc(C(F)(F)F)nc2C)C(=O)CC1C (centres unmarked)

2
3
3
2

Provide Post-emergence action: Echino. (score, nine-step scale) for all items below, preserving their order.
1. Cc1c(C(=O)C2=C(O)CCCC2=O)ccc(C(F)(F)F)[n+]1[O-]
2. CC1=CCCC(O)=C(C(=O)c2ccc(C(F)(F)F)nc2C)C1=O
3. COCc1nc(C(F)(F)F)ccc1C(=O)C1=C(O)C(C)(C)C(C)CC1=O (centres unmarked)

1. 2
2. 3
3. 3

Go through the items and report each one's Post-emergence action: Echino. (score, nine-step scale).
1. COCc1nc(C(F)(F)F)ccc1C(=O)C1=C(O)CCC=C(C)C1=O
2. Cc1c(C(=O)C2=C(Cl)C(C)(C)C(=O)C(C)(C)C2=O)ccc(C(F)(F)F)[n+]1[O-]

4
3

###

Tested on: Monocotyledonous and dicotyledonous test plants
Assay: Herbicidal action before emergence of the plants (pre-emergence action)
Assay type: in vivo
Conditions: Echino.; 250 g/ha; evaluated after 3 weeks; nine-step scale
metric name: Pre-emergence action, Echino.
Numbers only.

[[record]]
molecule = "COc1nc(C(F)(F)F)ccc1C(=O)C1=C(O)C(C)(C)CCC1=O"
tested_target = "Monocotyledonous and dicotyledonous test plants"
metric_name = "Pre-emergence action, Echino."
recorded_measurement = 4

[[record]]
molecule = "CCOC(=O)OCc1nc(C(F)(F)F)ccc1C(=O)C1=C(O)C(C)(C)C(=O)C(C)(C)C1=O"
tested_target = "Monocotyledonous and dicotyledonous test plants"
metric_name = "Pre-emergence action, Echino."
recorded_measurement = 1

[[record]]
molecule = "COCc1nc(C(F)(F)F)ccc1C(=O)C1=C(O)CCCC1=O"
tested_target = "Monocotyledonous and dicotyledonous test plants"
metric_name = "Pre-emergence action, Echino."
recorded_measurement = 2

[[record]]
molecule = "COCc1nc(C(F)(F)F)ccc1C(=O)C1=C(O)C(C)(C)OCC1=O"
tested_target = "Monocotyledonous and dicotyledonous test plants"
metric_name = "Pre-emergence action, Echino."
recorded_measurement = 4

[[record]]
molecule = "Cc1c(C(=O)C2=C(Cl)C(C)(C)C(=O)C(C)(C)C2=O)ccc(C(F)(F)F)[n+]1[O-]"
tested_target = "Monocotyledonous and dicotyledonous test plants"
metric_name = "Pre-emergence action, Echino."
recorded_measurement = 2


List reported Pre-emergence action, Echino. for each of these molecules:
1. COCc1nc(C(F)(F)F)ccc1C(=O)C1=C(O)CC(C)(C)CC1=O
2. CCOC(=O)C1C(O)=C(C(=O)c2ccc(C(F)(F)F)nc2C)C(=O)CC1C (centres unmarked)
3. COCc1nc(C(F)(F)F)ccc1C(=O)C1=C(O)C(C)(C)C(C)CC1=O (centres unmarked)

1: 3; 2: 4; 3: 3
